Target: WT BTK protein (Homo sapiens, UniProt Q06187)
Construct: measured for intracellular BTK protein levels by Western blotting; endogenous in cells; host or cells: TMD-8 or RAMOS cells
Sequence (Q06187 whole entry): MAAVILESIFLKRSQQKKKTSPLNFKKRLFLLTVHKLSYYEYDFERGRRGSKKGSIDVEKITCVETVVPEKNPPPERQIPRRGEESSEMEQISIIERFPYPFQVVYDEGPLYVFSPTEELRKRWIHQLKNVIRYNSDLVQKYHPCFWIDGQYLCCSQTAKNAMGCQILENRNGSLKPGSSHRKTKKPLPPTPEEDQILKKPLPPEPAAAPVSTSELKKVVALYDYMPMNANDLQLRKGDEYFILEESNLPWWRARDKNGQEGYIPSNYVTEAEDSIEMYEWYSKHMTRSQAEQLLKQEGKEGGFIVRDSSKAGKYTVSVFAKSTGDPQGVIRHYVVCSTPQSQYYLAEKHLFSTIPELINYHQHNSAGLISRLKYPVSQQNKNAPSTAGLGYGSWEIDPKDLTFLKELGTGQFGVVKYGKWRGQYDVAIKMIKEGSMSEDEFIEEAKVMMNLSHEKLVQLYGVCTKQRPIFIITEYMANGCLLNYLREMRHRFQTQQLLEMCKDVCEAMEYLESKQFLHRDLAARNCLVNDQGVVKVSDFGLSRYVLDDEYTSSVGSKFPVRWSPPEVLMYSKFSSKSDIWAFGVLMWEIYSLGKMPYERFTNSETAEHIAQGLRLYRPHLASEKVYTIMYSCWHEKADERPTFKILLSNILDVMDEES
Assay: BTK protein degradation assay (Western blotting), WT BTK
Assay type: cell-based
Details: concentration range accounting for 50% degradation of WT BTK protein, TMD-8 or RAMOS cells, 24 hours
quantity-measured: DC50

Solved cases below.
>>> value_measured("Cc1cccc(C)c1Nc1nn(C)c2nc(Nc3ccc4c(c3)CN(C(=O)C3CCN(c5ccc6nnn(C7CCC(=O)NC7=O)c(=O)c6c5)CC3)CC4)ncc12 (stereo not drawn)")
"0.1 to 10 nM"
>>> value_measured("Cc1cccc(C)c1Nc1nn(C)c2nc(Nc3ccc4c(c3)CN(C(=O)[C@H]3CCCN3C(=O)C3CCN(c5ccc6c(c5)C(=O)N(C5CCC(=O)NC5=O)C6=O)CC3)CC4)ncc12 (stereo partly drawn)")
"0.1 to 10 nM"

// map Cc1cccc(C)c1Nc1nn(C)c2nc(Nc3ccc(N4CCN(C[C@H]5CCCN(c6ccc7c(c6)C(=O)N(C6CCC(=O)NC6=O)C7=O)C5)CC4)nc3)ncc12 (stereo partly drawn) to recorded DC50 (system: WT BTK protein (Homo sapiens, UniProt Q06187)) 0.1 to 10 nM
